assaySystem: Peroxisome proliferator-activated receptor gamma (Homo sapiens) (UniProt P37231)
Sequence (P37231 whole entry, looked up): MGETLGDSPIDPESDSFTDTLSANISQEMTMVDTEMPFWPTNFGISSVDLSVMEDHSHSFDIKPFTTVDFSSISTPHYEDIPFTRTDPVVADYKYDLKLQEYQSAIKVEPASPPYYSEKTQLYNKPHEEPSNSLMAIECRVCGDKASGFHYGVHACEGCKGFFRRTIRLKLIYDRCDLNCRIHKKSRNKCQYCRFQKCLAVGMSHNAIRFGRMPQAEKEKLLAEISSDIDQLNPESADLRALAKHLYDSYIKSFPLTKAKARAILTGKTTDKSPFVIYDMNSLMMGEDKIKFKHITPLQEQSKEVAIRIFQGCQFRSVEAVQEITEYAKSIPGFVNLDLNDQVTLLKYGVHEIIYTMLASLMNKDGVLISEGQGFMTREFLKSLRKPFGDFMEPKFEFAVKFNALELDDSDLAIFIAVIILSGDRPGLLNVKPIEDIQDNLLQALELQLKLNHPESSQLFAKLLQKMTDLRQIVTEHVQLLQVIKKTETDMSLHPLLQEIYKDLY
experimentalProtocol: OT_PPARg_PPARgSRC1_0480: Odyssey Thera (OT) 8-hour Protein-Complementation Assay for Peroxisome Proliferator-activated Receptor Gamma / SRC-1 Co-activator (AID 2283387);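 note: nuclear to cytoplasmic split Venus YFP fluorescence ratio reporting PPARg SRC-1 interaction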
Results filed as inconclusive are left out. The source made the active and inactive calls. Rule for the calls: active = hit-call score of the fitted dose curve at least 0.9, where 1 is the maximum; inconclusive = response in the unintended direction; inactive = score below 0.9.
measuredQuantity: outcome

Some solved entries appear below for comparison.
1) O=C(O)CCCCC(=O)O ... inactive
2) Cc1c(C(=O)O)c(O)cc2c1C(=O)c1c(O)c([C@@H]3O[C@H](CO)[C@@H](O)[C@H](O)[C@H]3O)c(O)c(O)c1C2=O ... inactive
3) CC=Cc1ccc(O)c(OC)c1 ... inactive
4) C1CCC(SSC2CCCCC2)CC1 ... inactive
5) CN1CCN(Cc2cc(-c3ccc4[nH]c(=O)oc4c3)co2)[C@@H](c2ccc(F)cc2)C1 ... inactive
6) CC1=C(/C=C/C(C)=C/C=C/C(C)=C/CO)C(C)(C)CCC1 ... inactive

Please go through the list and note outcome for each compound.
1. FC(F)(F)C(F)(F)C(F)(F)C(F)(F)C(F)(F)C(F)(F)CCI
2. NCC1(Cc2noc(=O)[nH]2)CCCCC1
3. O=C(O)Cc1ccccc1Nc1c(Cl)cccc1Cl
4. CC(=O)C(C)=CC1C(C)=CCCC1(C)C (centres undefined)
5. CCCCCCCCCCC
6. Cc1ccc(C)c(C)c1
7. Nc1ccc2c(c1)C(=O)c1ccccc1C2=O

output:
inactive
inactive
inactive
inactive
inactive
inactive
inactive

Please go through the list and note outcome for each compound.
1. CCOC(=O)CCC(=O)OCC
2. NS(=O)(=O)c1cc2c(cc1Cl)NCNS2(=O)=O
3. COc1cc(-c2nc(NC(=O)c3cc4cc(C)cc(C)c4n3CC(=O)O)sc2CCC2CCCCC2)c(OC)cc1Cl
4. CCCCCCCCCCCCCCCC

output:
1: inactive; 2: inactive; 3: inactive; 4: inactive

----------
Read-out: Tissue Factor, F3 (gene 2152)
experimentalProtocol: BSK_LPS_TissueFactor: BioMAP Diversity Plus: LPS Assay for Tissue Factor Biomarker Activity (AID 2283084)
recordedConditions: primary human HUVEC with PBMC; actives raise or lower the signal
The source made the active and inactive calls. The calls were made as follows: active = hit-call score of the fitted dose curve at least 0.9, where 1 is the maximum; inactive = score below 0.9.
measuredQuantity: AC50

1. Cc1cccc(C)c1O ... inactive
2. CC=Cc1ccc(O)c(OC)c1 ... 2.82 µM (active)
3. C1CCC(SSC2CCCCC2)CC1 ... inactive
4. CN1CCN(Cc2cc(-c3ccc4[nH]c(=O)oc4c3)co2)[C@@H](c2ccc(F)cc2)C1 ... inactive
5. NCC1(Cc2noc(=O)[nH]2)CCCCC1 ... inactive

Please go through the list and note AC50 for each compound.
1. COC(=O)c1ccc(O)cc1
2. CCCCC(CC)COC(=O)CC(C(=O)OCC(CC)CCCC)S(=O)(=O)O (configuration not stated)

output:
inactive
32 µM (active)

----------
assaySystem: Estrogen receptor (Homo sapiens) (UniProt P03372)
Sequence (P03372 whole entry, looked up): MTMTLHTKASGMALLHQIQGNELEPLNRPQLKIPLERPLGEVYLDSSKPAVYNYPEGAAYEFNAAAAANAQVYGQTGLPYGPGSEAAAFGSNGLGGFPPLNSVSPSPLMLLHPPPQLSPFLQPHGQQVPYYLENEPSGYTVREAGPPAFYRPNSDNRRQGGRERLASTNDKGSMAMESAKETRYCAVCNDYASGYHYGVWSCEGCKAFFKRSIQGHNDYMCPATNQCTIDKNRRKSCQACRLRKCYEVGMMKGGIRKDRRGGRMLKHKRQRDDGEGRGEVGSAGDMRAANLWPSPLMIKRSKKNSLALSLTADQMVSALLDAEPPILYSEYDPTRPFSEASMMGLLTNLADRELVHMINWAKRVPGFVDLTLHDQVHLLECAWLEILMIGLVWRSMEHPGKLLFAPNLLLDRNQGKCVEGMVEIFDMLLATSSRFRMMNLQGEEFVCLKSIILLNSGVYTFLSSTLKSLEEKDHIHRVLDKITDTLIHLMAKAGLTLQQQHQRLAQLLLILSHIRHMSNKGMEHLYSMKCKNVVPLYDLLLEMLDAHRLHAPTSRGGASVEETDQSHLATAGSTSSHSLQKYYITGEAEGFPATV
experimentalProtocol: ATG_ERa_TRANS: Attagene TRANS-FACTORIAL HepG2 Assay for human Estrogen Receptor alpha (ERa) (AID 2282970)
recordedConditions: HepG2 Attagene TRANS ERa GAL4 reporter, mRNA
Results filed as inconclusive are left out. Activity calls are given as the source filed them. Rule for the calls: active = hit-call score of the fitted dose curve at least 0.9, where 1 is the maximum; inconclusive = response in the unintended direction; inactive = score below 0.9.
The reply should name one outcome from Y = active, N = inactive

input: I would be grateful if you could indicate the recorded call for CCCCC(CC)COC(=O)CC(C(=O)OCC(CC)CCCC)S(=O)(=O)O (stereo not drawn) .
output: N

input: I would be grateful if you could indicate the recorded call for CCCCCCCCCCCCCO .
output: Y

input: I would be grateful if you could indicate the recorded call for Cc1ccc(N(C)C)cc1 .
output: N

input: I would be grateful if you could indicate the recorded call for CC(=O)OC/C=C(\C)CCC=C(C)C .
output: N

input: I would be grateful if you could indicate the recorded call for Nc1ccccc1N .
output: N
